Listed here: items and their measured growth.
Test system: M14 melanoma
Assay: NCI-60 one-dose screen, 48 h (100 = growth as untreated, 0 = no growth, -100 = all killed)
Settings: 10 µM unless noted
Compounds without any hit were thinned out: in the full panel of roughly 83,000, 20% have a hit.
property: growth (%)

>>> measurement("Cc1ccccc1N1C(c2ccccc2)=NNC12C=CC(=O)C=C2Cl (stereo not given)")
105
>>> measurement("CC(C)(O)CC(=O)NCCn1ccc2ncnc(Nc3ccc(Oc4cccc(C(F)(F)F)c4)c(Cl)c3)c21")
-1.37
>>> measurement("COc1cc(F)c(F)c(Nc2ccc(I)cc2F)c1NS(=O)(=O)C1(C[C@H](O)CO)CC1")
7.68
>>> measurement("Clc1ccc2c(NCCCNCc3ccc4c(c3)OCO4)ccnc2c1")
-72.5
>>> measurement("C=C1[C@@H](O)C[C@H]2C(C)(C)C[C@H](Cl)C[C@]2(C)[C@H]1C[C@H](O)[C@H]1CC(=O)NC1=O")
-75.5
>>> measurement("Nc1c2c(c(O)c3c1=C(CO)C=N3)=NCCS2")
-89.7
>>> measurement("COc1cnc2c(c1)C(=O)c1c-2n(CCCNC2=NCCS2)c(=O)c2cc(Cl)ccc12")
-70.3
>>> measurement("CCc1nc2cc(/C=C/C(=O)NO)c(F)cc2c(=O)n1CCc1ccccc1")
3.41
>>> measurement("Nc1nc(Nc2ccccc2)c(C=Nc2ccccc2)c(=O)[nH]1")
91.5
>>> measurement("CNC(=O)c1c(C)oc2cc(Oc3ncnc4cc(OC)c(OC)cc34)ccc12")
98.2
>>> measurement("CC(=O)OCCC/C(=C\\c1ccc2ccccc2c1)[N+](=O)[O-]")
-70.9
>>> measurement("O=S1(=O)OC(c2cc(Cl)c(O)c(Br)c2)(c2cc(Cl)c(O)c(Br)c2)c2ccccc21")
99.4
>>> measurement("ClCc1ccc(-c2ccc(Cn3cnc4nc(Cl)nc(Cl)c43)cc2)cc1")
13.1
>>> measurement("Cc1ccccc1Nc1nc2nonc2nc1Nc1cccc(C)c1C")
58.4
>>> measurement("O=C(Cn1c(=O)ccn(CCCCCCCCOc2ccc(Br)cc2)c1=O)Nc1ccc(Oc2ccc(Cl)cc2)cc1")
70.1
>>> measurement("CNC(=O)c1cccc2cc(Oc3ccnc4cc(OCC5(N)CC5)c(OC)cc34)ccc12")
56.1
>>> measurement("CNC(=O)c1cc(Oc2cccc3nc(Nc4ccc(Oc5ccccc5)cc4)ccc23)ccn1")
68.6
>>> measurement("Cc1cc(N2CCOCC2)nc(N(CCNc2ccnc3cc(Cl)ccc23)Cc2cccs2)n1")
3
>>> measurement("O=C(CNc1nc(-c2ccc(Cl)cc2)cs1)Nc1ccc(-c2nc3ccccc3s2)cc1")
88.2
>>> measurement("Cc1cc(O)cc(-c2c(-c3ccnc(-c4cccnc4)c3)cnn2C)c1")
66

====

Test system: HCT-116 colon
Test: NCI-60 one-dose screen, 48 h (100 = growth as untreated, 0 = no growth, -100 = all killed)
Details: 10 µM unless noted
The panel holds about 83,000 compounds, 20% with a hit somewhere; the sample as a whole holds those more often. The source made the active and inactive calls. Rule for the calls: active = growth percent below 10; inactive = the rest.
Listed here: items and their measured growth.
property: growth

>>> measurement("Clc1ccc(Nc2nccc(Nc3ccc4[nH]ncc4c3)n2)cc1")
"39.4% (inactive)"
>>> measurement("CCCCOc1nc2cc(Cl)ccc2cc1/C=C/c1cc(/C=C/c2cc3ccc(Cl)cc3nc2OCCCC)n(-c2ccccc2)n1")
"85.3% (inactive)"
>>> measurement("COc1cc2cc(NCc3ccc(F)cc3)nc(C)c2cc1OC")
"9.34% (active)"
>>> measurement("CC(C)n1c(NCCc2ccc(O)c(O)c2)nc2c1c(=O)n(C)c(=O)n2C")
"97% (inactive)"
>>> measurement("Cc1cc(Nc2cc(N3CCN(C)CC3)nc(/C=C/c3ccccc3)n2)n[nH]1")
"0.937% (active)"
>>> measurement("Cc1nn(-c2nc3ccccc3[nH]2)c2c1C(c1ccc(O)cc1)CC(=O)N2 (centres undefined)")
"101% (inactive)"
>>> measurement("CC(C)Nc1cc(-c2c[nH]c(C(=O)N[C@H](CO)c3cccc(Cl)c3)c2)c(Cl)cn1")
"15.7% (inactive)"
>>> measurement("COc1cc(Nc2ncc3c(n2)-c2ccc(Cl)cc2C(c2c(F)cccc2OC)=NC3)ccc1C(=O)O")
"45.3% (inactive)"
>>> measurement("COc1cc2nccc(Oc3ccc(NC(=O)Nc4cc(C)on4)c(Cl)c3)c2cc1OC")
"-4.79% (active)"

Attribution: PubChem BioAssay (NCI)
